test: Steroidomic (GC-MS/MS) analysis of hippocampal tissue after PA-G administration; details: male, Wistar, rat, in vivo, ip, 1 mg/kg, Steroid concentration in hippocampal tissue, PA-G-Treated (P), 12-day-old rats; 20 min after PA-G i.p., 1 mg/kg in CDX
Structures can show the parent of a compound that is named as a salt.
Note to self: class labels come from recorded concentration at 20 min, ranges listed here: category 1: < 1 ng/g; category 2: ≥ 1 ng/g and < 8 ng/g; category 3: ≥ 8 ng/g

| molecule | label value |
| --- | --- |
| CC(=O)[C@H]1CCC2C3CC[C@@H]4CC(=O)CC[C@]4(C)C3CC[C@@]21C (stereo partly drawn) [5β-Dihydroprogesterone, 5β-dihydroprogesterone] | category 1 |
| CC(=O)[C@H]1CC[C@H]2[C@@H]3CC[C@@H]4C[C@H](O)CC[C@]4(C)[C@H]3CC[C@]12C | category 3 |
| C[C@]12CC[C@H](OS(=O)(=O)O)CC1=CC[C@@H]1[C@@H]2CC[C@]2(C)C(=O)CC[C@@H]12 [Dehydroepiandrosterone sulfate (DHEA-S), 17-oxo-androst-5-en-3β-yl 3-sulfate] | category 2 |
| C[C@]12CC[C@H]3[C@@H](CC=C4C[C@@H](O)CC[C@@]43C)[C@@H]1CC[C@@H]2O | category 1 |
| C[C@]12CC[C@H](OS(=O)(=O)O)CC1=CCC1C2CC[C@@]2(C)C1CC[C@@H]2O (stereo partly drawn) [Androstenediol sulfate, androstenediol sulfate] | category 2 |
| CC(=O)[C@H]1CC[C@H]2[C@@H]3CC[C@H]4C[C@H](O)CC[C@]4(C)[C@H]3CC[C@]12C | category 1 |
| C[C@H](O)[C@H]1CCC2C3CC[C@@H]4C[C@H](O)CC[C@]4(C)C3CC[C@@]21C (stereo partly drawn) [3α,20α-Dihydroxy-5β-pregnane] | category 3 |
| CC(=O)[C@@]1(O)CCC2C3CC[C@@H]4C[C@H](O)CC[C@]4(C)C3CC[C@@]21C (stereo partly drawn) [17-OH-PA, 17-hydroxy-pregnanolone] | category 3 |
| C[C@]12CC[C@H](O)CC1=CC[C@@H]1[C@@H]2CC[C@]2(C)C(=O)CC[C@@H]12 [Dehydroepiandrosterone (DHEA), dehydroepiandrosterone] | category 2 |
| CC(=O)[C@H]1CCC2C3CC=C4C[C@@H](O)CC[C@]4(C)C3CC[C@@]21C (stereo partly drawn) | category 2 |
| C[C@H](O)[C@@]1(O)CCC2C3CC[C@@H]4C[C@H](O)CC[C@]4(C)C3CC[C@@]21C (stereo partly drawn) [3α,17α,20α-Trihydroxy-5β-pregnane] | category 2 |
| CC(=O)[C@@]1(O)CCC2C3CC[C@H]4C[C@H](O)CC[C@]4(C)C3CC[C@@]21C (stereo partly drawn) [17-Hydroxyallopregnanolone] | category 3 |

###

percentage of total significantly increased (5β) steroids in the rat hippocampus: recorded values
assay: Steroidomic (GC-MS/MS) analysis of hippocampal tissue after PA-G administration; settings: P12; 20 min after PA-G i.p., 1 mg/kg in CDX
measured property: percentage of total significantly increased (5β) steroids in the rat hippocampus (%)

| molecule | u | numeric readout |
| --- | --- | --- |
| CC(=O)[C@H]1CC[C@H]2[C@@H]3CC[C@@H]4C[C@H](O)CC[C@]4(C)[C@H]3CC[C@]12C [PA, pregnanolone] | % | 9.47 |
| C[C@H](O)[C@H]1CCC2C3CC[C@@H]4C[C@H](O)CC[C@]4(C)C3CC[C@@]21C (stereo partly drawn) [3α,20α-Dihydroxy-5β-pregnane] | % | 1.23 |
| CC(=O)[C@H]1CCC2C3CC[C@@H]4CC(=O)CC[C@]4(C)C3CC[C@@]21C (stereo partly drawn) [5β-Dihydroprogesterone, 5β-dihydroprogesterone] | % | 0.07 |

###

test: Steroidomic (GC-MS/MS) analysis of hippocampal tissue after PA-G administration; details: P12; 20 min after PA-G i.p., 1 mg/kg in CDX
measured property: fold increase in the concentration in the rat hippocampus above the basal levels

| molecule | result |
| --- | --- |
| CC(=O)[C@H]1CCC2C3CC[C@@H]4C[C@H](OC(=O)[C@@H](N)CCC(=O)O)CC[C@]4(C)C3CC[C@@]21C (stereo partly drawn) | 199 x |
| CC(=O)[C@H]1CC[C@H]2[C@@H]3CC[C@@H]4C[C@H](O)CC[C@]4(C)[C@H]3CC[C@]12C | 272 x |
| CC(=O)[C@@]1(O)CC[C@H]2[C@@H]3CC[C@@H]4C[C@H](OC(=O)[C@@H](N)CCC(=O)O)CC[C@]4(C)[C@H]3CC[C@@]21C [17-Hydroxypregnanolone glutamate] | 84.6 x |

###

test: Steroidomic (GC-MS/MS) analysis of hippocampal tissue after PA-G administration; details: male, Wistar, rat, in vivo, ip, 1 mg/kg, Steroid concentration in hippocampal tissue, PA-G-Treated (P), 25-day-old rats; 20 min after PA-G i.p., 1 mg/kg in CDX
Counter-ions that a name gives are not always drawn.
The reader will find reported concentration at 20 min values listed item by item below.

| molecule | concentration at 20 min / ng/g |
| --- | --- |
| C[C@]12CC[C@H](OS(=O)(=O)O)CC1=CC[C@@H]1[C@@H]2CC[C@]2(C)C(=O)CC[C@@H]12 [Dehydroepiandrosterone sulfate (DHEA-S), 17-oxo-androst-5-en-3β-yl 3-sulfate] | 1.52 |
| C[C@H](O)[C@H]1CCC2C3CC[C@@H]4C[C@H](O)CC[C@]4(C)C3CC[C@@]21C (stereo partly drawn) [3α,20α-Dihydroxy-5β-pregnane] | 0.919 |
| CC(=O)[C@H]1CCC2C3CC[C@@H]4CC(=O)CC[C@]4(C)C3CC[C@@]21C (stereo partly drawn) [5β-Dihydroprogesterone, 5β-dihydroprogesterone] | 0.0943 |
| C[C@]12CC[C@H](O)CC1=CC[C@@H]1[C@@H]2CC[C@]2(C)C(=O)CC[C@@H]12 [Dehydroepiandrosterone (DHEA), dehydroepiandrosterone] | 0.644 |
| C[C@]12CC[C@H]3[C@@H](CC=C4C[C@@H](O)CC[C@@]43C)[C@@H]1CC[C@@H]2O | 0.364 |
| CC(=O)[C@H]1CC[C@H]2[C@@H]3CC[C@H]4C[C@H](O)CC[C@]4(C)[C@H]3CC[C@]12C | 0.144 |
| CC(=O)[C@H]1CC[C@H]2[C@@H]3CC[C@@H]4C[C@H](O)CC[C@]4(C)[C@H]3CC[C@]12C | 5.02 |
| CC(=O)[C@@]1(O)CCC2C3CC[C@H]4C[C@H](O)CC[C@]4(C)C3CC[C@@]21C (stereo partly drawn) [17-Hydroxyallopregnanolone] | 3.19 |
| C[C@]12CC[C@H](OS(=O)(=O)O)CC1=CCC1C2CC[C@@]2(C)C1CC[C@@H]2O (stereo partly drawn) [Androstenediol sulfate, androstenediol sulfate] | 1.62 |
| CC(=O)[C@H]1CCC2C3CC=C4C[C@@H](O)CC[C@]4(C)C3CC[C@@]21C (stereo partly drawn) | 3.44 |
| CC(=O)[C@@]1(O)CCC2C3CC[C@@H]4C[C@H](O)CC[C@]4(C)C3CC[C@@]21C (stereo partly drawn) [17-OH-PA, 17-hydroxy-pregnanolone] | 40.8 |
| C[C@H](O)[C@@]1(O)CCC2C3CC[C@@H]4C[C@H](O)CC[C@]4(C)C3CC[C@@]21C (stereo partly drawn) [3α,17α,20α-Trihydroxy-5β-pregnane] | 0.951 |

###

assay: Steroidomic (GC-MS/MS) analysis of hippocampal tissue after PA-G administration; settings: P12; 20 min after PA-G i.p., 1 mg/kg in CDX;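 further: hippocampal steroids quantified by GC-MS/MS, covering free and conjugated forms after hydrolysis, compared against intact rats and rats injected with CDX vehicle alone, five animals per group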
measured property: percentage of total significantly increased (5β) steroids in the rat hippocampus

| compound | result |
| --- | --- |
| CC(=O)[C@H]1CCC2C3CC[C@@H]4C[C@H](OC(=O)[C@@H](N)CCC(=O)O)CC[C@]4(C)C3CC[C@@]21C (stereo partly drawn) | 6.04% |
| C[C@]12CC[C@@H](O)C[C@H]1CC[C@@H]1[C@@H]2CC[C@]2(C)C(=O)CC[C@@H]12 [Etiocholanolone (ETIO), etiocholanolone] | 0.1% |
| C[C@H](O)[C@H]1CC[C@H]2[C@@H]3CC[C@@H]4C[C@H](OC(=O)[C@@H](N)CCC(=O)O)CC[C@]4(C)[C@H]3CC[C@]12C [(20S)-Hydroxypregnanolone glutamate] | 0.53% |
| CC(=O)[C@@]1(O)CC[C@H]2[C@@H]3CC[C@@H]4C[C@H](OC(=O)[C@@H](N)CCC(=O)O)CC[C@]4(C)[C@H]3CC[C@@]21C [17-Hydroxypregnanolone glutamate] | 0.04% |
| C[C@H](O)[C@@]1(O)CCC2C3CC[C@@H]4C[C@H](O)CC[C@]4(C)C3CC[C@@]21C (stereo partly drawn) [3α,17α,20α-Trihydroxy-5β-pregnane] | 0.74% |
| CC(=O)[C@@]1(O)CCC2C3CC[C@@H]4C[C@H](O)CC[C@]4(C)C3CC[C@@]21C (stereo partly drawn) [17-OH-PA, 17-hydroxy-pregnanolone] | 73.7% |

Sourced from paper PMC8780580
